Origin of values: PubChem BioAssay AID2315

experiment: A qHTS for Small Molecule Inhibitors of Shiga Toxin; conditions: Vero cells, Shiga toxin protein synthesis inhibition reporter; at 38.7 µM, active compounds read high
In all, about 290,000 compounds went through this assay and about 27,000 (9.3%) were called active. Shown is part of a subset that was picked to be rich in actives.
inhibition overview
Write the value in % as a bare number.

**Q:** Provide inhibition value for the following compound: Cc1ccc(C(CNC(=O)Nc2cccc(C)c2)N2CCN(C)CC2)cc1 (stereo unspecified)
**A:** 1.35

**Q:** Provide inhibition value for the following compound: Cc1cccc(CCNS(=O)(=O)c2ccc3c(c2)NC(=O)CO3)c1
**A:** -6.16

**Q:** Provide inhibition value for the following compound: COc1cc(NC(=O)c2cccnc2SC)cc(OC)c1
**A:** 10.8

**Q:** Provide inhibition value for the following compound: Cn1c(=O)c2c(nc(NCCNC(=O)c3ccco3)n2Cc2ccccc2F)n(C)c1=O
**A:** -9.7

**Q:** Provide inhibition value for the following compound: CSc1ncccc1C(=O)Nc1nc2ccc(F)cc2s1
**A:** 138

**Q:** Provide inhibition value for the following compound: COc1ccc(CCNC(=O)NS(=O)(=O)c2ccc(C)cc2)cc1OC
**A:** 4.27

---

inhibition overview
test: A qHTS for Small Molecule Inhibitors of Shiga Toxin; conditions: Vero cells, Shiga toxin protein synthesis inhibition reporter; at 38.7 µM, active compounds read high
Screen size: about 290,000 compounds; about 27,000 (9.3%) were called active. The full list was thinned out, with actives kept by preference.
Write the value in % as a bare number.

Field: example entries. Status: answers known.
[
  {
    "compound": "COc1ccc(Oc2c(Cl)cnn(-c3ccccc3)c2=O)cc1",
    "output_unit": "%",
    "inhibition": -10.6
  },
  {
    "compound": "NS(=O)(=O)c1cccc(NC(=O)CC23CC4CC(CC(Br)(C4)C2)C3)c1",
    "output_unit": "%",
    "inhibition": -9.01
  },
  {
    "compound": "Cc1nc(-c2ccccc2)sc1-c1nnc(C2CC2)o1",
    "output_unit": "%",
    "inhibition": 87.2
  },
  {
    "compound": "COc1ccc(NC(=O)[C@H](NC(=O)[C@@H]2Cc3ccccc3CN2)c2ccccc2)cc1",
    "output_unit": "%",
    "inhibition": -2.7
  }
]

**Q:** Provide inhibition value for the following compound: COc1ccccc1Nc1cc(C(=O)NCCCN(C)C2CCCCC2)c2ccccc2n1
**A:** -10.8

**Q:** Provide inhibition value for the following compound: Cc1c(NC(=O)CSCc2ccccc2)cccc1C(=O)O
**A:** 31.3

**Q:** Provide inhibition value for the following compound: COc1ccc(CCC(C)N2CCc3ccccc3C2)cc1 (stereo not given)
**A:** -6.15

---

assay: A qHTS for Small Molecule Inhibitors of Shiga Toxin; conditions: Vero cells, Shiga toxin protein synthesis inhibition reporter; at 38.7 µM
Screen size: about 290,000 compounds; about 27,000 (9.3%) were called active. Rule as the data show it: active = inhibition mostly above about 28% (no sharp cut-off); inactive = mostly below about 43%. What follows is part of a selection rich in actives, with near analogues and random picks from the rest.
The reply should be one of these categories: label 1 = active, label 0 = inactive

Use these answered entries as a reference point.
[
  {
    "compound": "COc1ccc(C(=O)Cc2cnn(-c3ccccc3)c2)c(O)c1",
    "answer_label": "label 1"
  },
  {
    "compound": "CSCCC(NS(=O)(=O)c1ccc(C)cc1)C(=O)NCCc1c[nH]c2ccccc12 (centres undefined)",
    "answer_label": "label 0"
  },
  {
    "compound": "Cc1sc2nc(SCCO)n(-c3ccccc3)c(=O)c2c1C",
    "answer_label": "label 0"
  },
  {
    "compound": "COc1ccc(C(=O)NC(=S)Nc2ccc(N3CCCC3)cc2)cc1OC",
    "answer_label": "label 0"
  },
  {
    "compound": "CC(C)(C)C1CCc2c(sc3nc(SCC(N)=O)nc(N)c23)C1 (centres undefined)",
    "answer_label": "label 1"
  }
]

**Q:** Could you check what this test reported for Cc1cc(O)cc(O)c1C(=O)Cc1cnn(-c2ccccc2)c1 ?
**A:** label 0

**Q:** Could you check what this test reported for CC(=O)Nc1ccc(NC(=O)COc2ccc(-c3ccccc3)cc2)cc1 ?
**A:** label 0

**Q:** Could you check what this test reported for C=C(C)CSc1nc(N)c2c3c(sc2n1)CCC3 ?
**A:** label 1

**Q:** Could you check what this test reported for O=C(Cc1c(Cl)cccc1Cl)NC1CC1 ?
**A:** label 0

---

assay: A qHTS for Small Molecule Inhibitors of Shiga Toxin; details: Vero cells, Shiga toxin protein synthesis inhibition reporter; at 38.7 µM
In all, about 290,000 compounds went through this assay and about 27,000 (9.3%) were called active. Rule as the data show it: active = inhibition mostly above about 28% (no sharp cut-off); inactive = mostly below about 43%. Only a selection was taken, and actives are over-represented in it overall.
The reply should be one of these categories: true (active), false (inactive)

Use these answered entries as a reference point.
[
  {
    "molecule": "O=C(NCc1cccs1)c1ccc(CS(=O)Cc2ccccc2Cl)o1 (configuration not stated)",
    "answer_label": "false"
  },
  {
    "molecule": "O=C(Oc1ccc([N+](=O)[O-])cc1)c1ccc2ccccc2n1",
    "answer_label": "true"
  },
  {
    "molecule": "CN(C(=O)COC(=O)CNC(=O)C12CC3CC(CC(C3)C1)C2)c1ccccc1",
    "answer_label": "false"
  },
  {
    "molecule": "COCCCNS(=O)(=O)c1cccc(S(=O)(=O)c2cccc(S(=O)(=O)NCCCOC)c2)c1",
    "answer_label": "false"
  },
  {
    "molecule": "CC(=O)N1c2ccc(S(=O)(=O)N3CCCC(C(=O)Nc4cccc(F)c4)C3)cc2CC1C (configuration not stated)",
    "answer_label": "false"
  }
]

Note: attention shifts to another entry.
**Q:** Could you check what this test reported for Cc1cc(C)c(S(=O)(=O)N(C)CC(=O)NCC2CCCO2)c(C)c1 (configuration not stated) ?
**A:** false

---

inhibition overview
assay: A qHTS for Small Molecule Inhibitors of Shiga Toxin; conditions: Vero cells, Shiga toxin protein synthesis inhibition reporter; at 38.7 µM, active compounds read high
Out of some 290,000 compounds screened, about 27,000 (9.3%) were called active. The list comes from a sample in which actives are over-represented; it also holds close analogues and randomly drawn compounds.
Write the value in % as a bare number.

Field: example entries. Status: answers known.
[
  {
    "compound": "COC(=O)[C@@H]1CCCN1C(=O)c1cc(COc2cccc3cccnc23)on1",
    "inhibition [%]": 18.1
  },
  {
    "compound": "CCC(C)Sc1nnc(-c2c[nH]c3ccccc23)n1CCOC (stereo not given)",
    "inhibition [%]": 11.2
  },
  {
    "compound": "Cc1cccc(NC(=O)Nc2nnc(-c3ccccc3)o2)c1",
    "inhibition [%]": -5.35
  }
]

**Q:** Provide inhibition value for the following compound: CSc1ccccc1OCc1cc(C(=O)N(C)CCc2c(C)n[nH]c2C)no1
**A:** -3.19

**Q:** Provide inhibition value for the following compound: CSc1ccccc1OCc1cc(C(=O)N2C[C@H]3CC[C@H]2C3)no1
**A:** 108

**Q:** Provide inhibition value for the following compound: CCCCCN(C(=O)CCC(=O)OCC(=O)NCc1ccc(OC)cc1)c1c(N)n(CCCC)c(=O)[nH]c1=O
**A:** -10.9

**Q:** Provide inhibition value for the following compound: Cc1cc(NC(=O)CCC(=O)N(CC(=O)NCC2CCCO2)c2ccccc2)no1 (stereo not given)
**A:** -9.61

**Q:** Provide inhibition value for the following compound: O=S(=O)(c1ccc2c(c1)OCCCO2)N1CCN(S(=O)(=O)c2c(F)cccc2F)CC1
**A:** -5.98

**Q:** Provide inhibition value for the following compound: CCc1nnc(NC(=O)c2nc3nccc(C)n3n2)s1
**A:** 2.51

**Q:** Provide inhibition value for the following compound: Cc1cc2cc(CNC(=O)c3cccs3)ccc2[nH]1
**A:** 21.3

---

inhibition overview
assay: A qHTS for Small Molecule Inhibitors of Shiga Toxin; details: Vero cells, Shiga toxin protein synthesis inhibition reporter; at 38.7 µM, active compounds read high
Screen size: about 290,000 compounds; about 27,000 (9.3%) were called active. What follows is part of a selection rich in actives, with near analogues and random picks from the rest.
Write the value in % as a bare number.

Field: example entries. Status: answers known.
[
  {
    "compound": "O=C(/C=C/c1ccc(OCc2c(F)cccc2Cl)cc1)N1CCOCC1",
    "inhibition [%]": 54.8
  },
  {
    "compound": "Cc1nc(SCC(=O)Nc2cc(C)on2)c2c(C)c(C)sc2n1",
    "inhibition [%]": 12.3
  }
]

**Q:** Provide inhibition value for the following compound: Cc1ccc(NC(=O)c2cc3ccccc3o2)cc1
**A:** 118

**Q:** Provide inhibition value for the following compound: Cc1ccc2cc(C#N)c(SCC(=O)NCC3CCCO3)nc2c1C (stereo not drawn)
**A:** -7.12

**Q:** Provide inhibition value for the following compound: COc1ccc(CCNC(=O)C(=O)NCC2OCCN2S(=O)(=O)c2ccc(OC)c(C)c2)cc1 (stereo not drawn)
**A:** 2.43

**Q:** Provide inhibition value for the following compound: CC[C@@H](C)[C@H](NC(=O)CCc1c(C)c2cc3c4c(oc3c(C)c2oc1=O)CCCC4)C(=O)O
**A:** 22.3

**Q:** Provide inhibition value for the following compound: COc1ccc(Br)cc1C1C2C=CCC(C)C2C(=O)N1Cc1ccccc1 (stereo not drawn)
**A:** 2.19
